System: N171-82Q HD mice
Test: High-altitude balance beam (11 mm) experiment 1, HD mice
Type: in vivo, mouse
Conditions: 5 mg/kg/d intragastric, 12 w
Record form. Attribute: Time for crossing the beams, high-altitude balance beam (11 mm). Fill in for each entry.

| Molecule | Result |
| --- | --- |
| CN(C)C1CCN(c2ccc(-c3cc(=O)c4ccc(O)c(O)c4o3)cc2)CC1 | 7.94 ± 1.64 s |
| CC1CC(C)CN(c2ccc(-c3cc(=O)c4ccc(O)c(O)c4o3)cc2)C1 (centres unmarked) | 8.04 ± 1.67 s |
| O=c1cc(-c2ccc(N3CCCCC3)cc2)oc2c(O)c(O)ccc12 | 8.20 ± 1.64 s |
| COc1ccc2c(=O)cc(-c3ccc(N4CCCCC4)cc3)oc2c1OC | 8.98 ± 1.75 s |

Challenge: Time for crossing the beams, high-altitude balance beam (11 mm) of "CC1(C)CCN(c2ccc(-c3cc(=O)c4ccc(O)c(O)c4o3)cc2)CC1" on N171-82Q HD mice?
Response given: 8.57 ± 2.12 s

* * *

Tested on: N171-82Q HD mice
Assay: High-altitude balance beam (5 mm) experiment 2, HD mice
Format: in vivo, mouse
Conditions: 5 mg/kg/d intragastric, 12 w
Recorded endpoint: Time for crossing the beams, high-altitude balance beam (5 mm) (s)
One number for each entry, in s.

| Compound | Number |
| --- | --- |
| O=c1cc(-c2ccc(N3CCCCC3)cc2)oc2c(O)c(O)ccc12 | 13.09 |
| COc1ccc2c(=O)cc(-c3ccc(N4CCCCC4)cc3)oc2c1OC | 12.13 |
| CC1(C)CCN(c2ccc(-c3cc(=O)c4ccc(O)c(O)c4o3)cc2)CC1 | 13.22 |
| CN(C)C1CCN(c2ccc(-c3cc(=O)c4ccc(O)c(O)c4o3)cc2)CC1 | 12.20 |

Challenge: Name the reported Time for crossing the beams, high-altitude balance beam (5 mm) value associated with the compound CC1CC(C)CN(c2ccc(-c3cc(=O)c4ccc(O)c(O)c4o3)cc2)C1 (centres unmarked)
Response given: 14.25

* * *

System: rats with permanent cerebral ischemia
Assay: Neurobehavioral scoring in rats with permanent cerebral ischemia (MCAO thread plug)
Assay type: in vivo, SD rats
Conditions: 20 mg/kg by gavage, 7 d after ischemia
Text: SD rats, male, about 220-250 g, were provided by the Experimental Animal Center of Medical College of Xi'an Jiaotong University. Rats were randomly divided into groups of 14 animals/group. […] (2) Statistical analysis of data: SPSS18.0 statistical software was used for statistical analysis and the data of each group was expressed as the mean standard error (x±SEM). […]
Recorded endpoint: Neurobehavioral score (0 to 4 points)

| Molecule | Result |
| --- | --- |
| CN(C)C1CCN(c2ccc(-c3cc(=O)c4ccc(O)c(O)c4o3)cc2)CC1 | 1.01 ± 0.27 |
| COc1ccc2c(=O)cc(-c3ccc(N4CCCCC4)cc3)oc2c1OC | 1.21 ± 0.22 |
| O=c1cc(-c2ccc(N3CCCCC3)cc2)oc2c(O)c(O)ccc12 | 1.17 ± 0.17 |
| CC1(C)CCN(c2ccc(-c3cc(=O)c4ccc(O)c(O)c4o3)cc2)CC1 | 1.12 ± 0.23 |

Query molecule follows.
Challenge: Using the record for CC1CC(C)CN(c2ccc(-c3cc(=O)c4ccc(O)c(O)c4o3)cc2)C1 (centres unmarked) , report its Neurobehavioral score (0 to 4 points).
Response given: 1.19 ± 0.30
